Known MFI of a selection of binders
target: T1, Cyno BCMA APP-Avi (cynomolgus, biotinylated (site not stated)); assay: flow cytometry of single yeast clone displaying the scFv, labelled with 20 nM biotinylated cyno BCMA, streptavidin/neutravidin-DyLight 633 detection
T1 construct: It was used as soluble biotinylated antigen; also called biotinylated cyno BCMA
T1 sequence (chain, as listed by the source limits assumed): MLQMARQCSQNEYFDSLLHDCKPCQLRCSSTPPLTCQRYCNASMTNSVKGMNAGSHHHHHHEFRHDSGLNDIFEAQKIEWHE
Readout Name: MFI

1) H2/L2-20 scFv (scFv) scFv: QAQLQSSGGGVVQPGRSLRLSCAASGFTVSSYGMHWVRQAPGKGLEWVAVISYTGSNKYYADSVKGRFTISRDNSKNTLYLQMNSLRAEDTAVYYCGGSGYALHDDYYGLDVWGQGTLVTVSSSGGGGSGGGGSGGGGSGGGGSQSALTQPASVSGSPGQSITISCTGTSSDVGGYNYVSWYQQHPGKAPKLMIYDVSNRLRGVSNRFSGSKFGNTASLTISGLQAEDEADYYCSSYTSSSALYVFGSGTKVTVL : 20700 MFI
2) H2/L2-34 scFv (scFv) scFv: QVQLQDSEGGVVQPGRSLRLSCAASGFTFSSYGMHWVRQAPGKGLEWVAVISYTGTKKYYADSVKGRFTISRDNSKNTLYLQMNSLRAEDTAVYYCGGSGYALHDDYYGLDVWGQGTLVTVSSSGGGGSGGGGSGGGGSGGGGSQSALTQPASVSGSPGQSITISCTGTSSDVGGYNYVSWYQQHPGKAPKLMIYDVSNRPWGVSNRFSGSKFGNTASLTISGLQAEDEADYYCSSYTSSSALYVFGSGTKVTVM : 10400 MFI
3) H2/L2-68 scFv (scFv) scFv: QAQLQSSEGGVVQPGRSLRLSCAASGFTFSSYGMHWVRQAPGKGLEWVAVISYRGFNKYYADSVKGRFTISRDNSKNTLYLQMNSLRAEDTAVYYCGGSGYALHDDYYGQDVWGQGTLVTVSSSGGGGSGGGGSGGGGSGGGGSQSALTQPASVSGSPGQSITISCTGTSSDVGGYNYVSWYQQHPGKAPKLMIYDVSNRLSGVSNRFSGSKFGNTASLTISGLQAEDEADYYCSSYTSSSTLYVFGSGTKVTVL : 16200 MFI
